- System: HEK-293 cells
- PROTOCOL_NOTES: HEK-293 cytotoxicity detection (CellTiter-Glo)
- Type: cell-based
- MEASUREMENT_CONTEXT: Homo sapiens, 72 h incubation, read-out: HEK293
READOUT_NAME: IC50

MOLECULE	RESULT
Cc1cc(-c2cc(Nc3ccc(N4CCN(CC5CCN(c6ccc(N7CCC(=O)NC7=O)cc6)CC5)CC4)cc3)ncn2)ccc1[C@@H](C)NC(=O)c1nc(C(C)(C)C)no1	> 10 µM

Query: Look up IC50: "Cc1cc(-c2cc(Nc3ccc(N4CC5(CCN(CC6CCN(c7ccc(N8CCC(=O)NC8=O)cc7)CC6)CC5)C4)cn3)ncn2)ccc1[C@@H](C)NC(=O)c1nc(C(C)(C)C)no1"
Reply: > 10 µM

Query: What does the record list as IC50 for Cc1cc(-c2cc(Nc3ccc(N4CCN(C(=O)C5CN(c6cc(F)c(C7CCC(=O)NC7=O)c(F)c6)C5)CC4)cn3)ncn2)ccc1[C@@H](C)NC(=O)c1nc(C(C)(C)C)no1 (some centres unmarked) ?
Reply: > 10 µM

Query: Would you mind telling me what IC50 value was observed for "Cc1cc(-c2cc(Nc3ccc(N4CCC5(CCN(CC6CCN(c7ccc(N8CCC(=O)NC8=O)cc7)CC6)CC5)CC4)cn3)ncn2)ccc1[C@@H](C)NC(=O)c1nc(C(C)(C)C)no1" ?
Reply: 0.891 µM

Query: IC50 lookup needed for Cc1cc(-c2cc(Nc3ccc(N4CCN(C5CN(C6CN(c7ccc(C8CCC(=O)NC8=O)cc7)C6)C5)CC4)cn3)ncn2)ccc1[C@@H](C)NC(=O)c1nc(C(C)(C)C)no1 (some centres unmarked) , thanks.
Reply: > 10 µM

---

- SYSTEM_NAME: BTK (Homo sapiens)
- Construct: endogenous in cells; host or cells: TMD-8 cells
- PROTOCOL_NOTES: BTK degradation in TMD-8 cells (HTRF assay)
- Format: cell-based
- MEASUREMENT_CONTEXT: 6 h treatment, HTRF BTK degradation IC50 (DC50)
# DC50 per entry
The answer is to be given in nM; state only the numeric part.

Consider the following illustrative entries.
COMPOUND	SYSTEM_NAME	DC50 / nM
Cc1cc(-c2cc(Nc3ccc(N4CCC(CN5CCN(c6ccc(N7CCC(=O)NC7=O)cc6)CC5)CC4)cn3)ncn2)ccc1[C@@H](C)NC(=O)c1nc(C(C)(C)C)no1	BTK (Homo sapiens)	2.11
Cc1cc(-c2cc(Nc3ccc(C4CN(CC5CCN(c6ccc(N7CCC(=O)NC7=O)cc6)CC5)C4)cn3)ncn2)ccc1[C@@H](C)NC(=O)c1nc(C(C)(C)C)no1	BTK (Homo sapiens)	1.14
Cc1cc(-c2cc(Nc3ccc(N4CCN(C(=O)C5CCN(c6ccc(N7CCC(=O)NC7=O)cc6)C5)CC4)cn3)ncn2)ccc1[C@@H](C)NC(=O)c1nc(C(C)(C)C)no1 (some centres unmarked)	BTK (Homo sapiens)	0.836
Cc1cc(-c2cc(Nc3ccc(N4CCN(CC5CCN(c6ccc(N7CCC(=O)NC7=O)c(F)c6)CC5)CC4)cn3)ncn2)ccc1[C@@H](C)NC(=O)c1nc(C(C)(C)C)no1	BTK (Homo sapiens)	2.2
Cc1cc(-c2cc(Nc3ncc(N4CCN(CC5CCN(c6ccc(N7CCC(=O)NC7=O)cc6)CC5)CC4)s3)ncn2)c(F)cc1[C@@H](C)NC(=O)c1nc(C(C)(C)C)no1	BTK (Homo sapiens)	17.9
Cc1cc(-c2cc(Nc3ccc(N4CC5(CN(C(=O)C6CN(c7ccc(N8CCC(=O)NC8=O)cc7)C6)C5)C4)cn3)ncn2)ccc1[C@@H](C)NC(=O)c1nc(C(C)(C)C)no1	BTK (Homo sapiens)	0.981

Then there is this compound:
Query: State the recorded DC50 for this entry: "Cc1c([C@@H](C)NC(=O)c2nc(C(C)(C)C)no2)ccc(-c2cc(Nc3ccc(N4CCN(CC5CCN(c6ccc(N7CCC(=O)NC7=O)cc6)CC5)CC4)cn3)ncn2)c1F"
Reply: 138

---

- SYSTEM_NAME: BTK (Homo sapiens, UniProt Q06187)
- Construct: endogenous in cells; host or cells: TMD-8 cells
- Sequence (Q06187 whole entry): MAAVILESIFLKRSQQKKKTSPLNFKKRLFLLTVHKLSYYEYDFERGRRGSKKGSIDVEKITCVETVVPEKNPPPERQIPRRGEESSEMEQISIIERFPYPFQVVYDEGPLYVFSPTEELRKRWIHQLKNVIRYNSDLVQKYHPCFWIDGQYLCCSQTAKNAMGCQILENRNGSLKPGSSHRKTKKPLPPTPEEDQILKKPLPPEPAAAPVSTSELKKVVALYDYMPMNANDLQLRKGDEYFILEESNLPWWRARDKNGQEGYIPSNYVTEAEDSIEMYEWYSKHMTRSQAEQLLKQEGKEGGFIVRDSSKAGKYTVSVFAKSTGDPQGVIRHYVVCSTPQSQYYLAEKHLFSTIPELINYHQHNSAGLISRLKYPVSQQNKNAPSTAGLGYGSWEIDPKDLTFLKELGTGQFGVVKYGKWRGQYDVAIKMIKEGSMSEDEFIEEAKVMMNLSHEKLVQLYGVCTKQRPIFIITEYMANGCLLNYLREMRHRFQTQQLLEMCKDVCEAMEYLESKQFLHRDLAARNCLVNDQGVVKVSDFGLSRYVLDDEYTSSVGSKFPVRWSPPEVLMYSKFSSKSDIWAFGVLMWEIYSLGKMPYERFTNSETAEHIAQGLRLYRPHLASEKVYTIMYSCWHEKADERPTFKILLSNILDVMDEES
- PROTOCOL_NOTES: BTK degradation in TMD-8 cells (HTRF assay)
- Assay type: cell-based
- MEASUREMENT_CONTEXT: 6 h treatment, HTRF BTK degradation IC50 (DC50)
READOUT_NAME: DC50 (nM)
Record the value in nM, omitting the unit from your answer.

Look over these answered cases.
MOLECULE	READOUT_NAME	RESULT_NUMBER
Cc1cc(-c2cc(Nc3ccc(N4CCN(C5CN(c6ccc(N7CCC(=O)NC7=O)cc6)C5)CC4)cn3)ncn2)ccc1[C@@H](C)NC(=O)c1nc(C(C)(C)C)no1	DC50	0.382
COc1cc(Nc2cc(-c3ccc([C@@H](C)NC(=O)c4nc(C(C)(C)C)no4)c(C)c3)ncn2)ncc1N1CCN(CC2CCN(c3ccc(N4CCC(=O)NC4=O)cc3)CC2)CC1	DC50	26
Cc1cc(-c2cc(Nc3ccc(N4CCN(C(=O)C5CCN(c6ccc(N7CCC(=O)NC7=O)cc6)CC5)CC4)cn3)ncn2)ccc1[C@@H](C)NC(=O)c1nc(C(C)(C)C)no1	DC50	1.66
Cc1cc(-c2cc(Nc3ccc(N4CCN(CCC5CCN(c6ccc(C7CCC(=O)NC7=O)c(F)c6)CC5)CC4)cc3)ncn2)c(F)cc1[C@@H](C)NC(=O)c1nc(C(C)(C)C)no1 (some centres unmarked)	DC50	16.9
Cc1cc(-c2cc(Nc3nnc(N4CCN(CC5CCN(c6ccc(N7CCC(=O)NC7=O)cc6)CC5)CC4)s3)ncn2)ccc1[C@@H](C)NC(=O)c1nc(C(C)(C)C)no1	DC50	11.2
Cc1cc(-c2cc(Nc3ccc(N4CCN(CC5CCN(c6ccc(N7CCC(=O)NC7=O)c(C)c6)CC5)CC4)cn3)ncn2)ccc1[C@@H](C)NC(=O)c1nc(C(C)(C)C)no1	DC50	1.15
Cc1cc(-c2cc(Nc3ccc(N4CCN(CC5CCN(c6ccc(N7CCC(=O)NC7=O)cc6)CC5)CC4)cn3)ncn2)ccc1[C@@H](C)NC(=O)c1nc(C2(C)CC2)no1	DC50	1.21
Cc1cc(-c2cc(Nc3ccc(N4CC5(CN(CC6CCN(c7ccc(N8CCC(=O)NC8=O)cc7)CC6)C5)C4)cn3)ncn2)ccc1[C@@H](C)NC(=O)c1nc(C(C)(C)C)no1	DC50	0.539
Cc1cc(-c2cc(Nc3ccc(N4CCN(CC5CCN(c6ccc(N7CCC(=O)NC7=O)cc6)CC5)CC4)nc3)ncn2)ccc1[C@@H](C)NC(=O)c1nc(C(C)(C)C)no1	DC50	32.7

Please find the next molecule below.
Query: So what does the record say about DC50 for "Cc1cc(-c2cc(Nc3ccc(N4CCN(CC5CCN(c6ccc(N7CCC(=O)NC7=O)cc6)CC5)CC4)c(C)n3)ncn2)ccc1[C@@H](C)NC(=O)c1nc(C(C)(C)C)no1" ?
Reply: 1.65

---

# DC50 listing for each entry below
- SYSTEM_NAME: BTK (Homo sapiens, UniProt Q06187)
- Construct: endogenous in cells; host or cells: TMD-8 cells
- PROTOCOL_NOTES: BTK degradation in TMD-8 cells (HTRF assay)
- Type: cell-based
- MEASUREMENT_CONTEXT: 6 h treatment, HTRF BTK degradation IC50 (DC50)

Query: Name the reported DC50 value associated with the molecule "Cc1cc(-c2cc(Nc3ccc(N4CCN(CC5CCN(c6cccc(CN7CCC(=O)NC7=O)c6)CC5)CC4)cn3)ncn2)ccc1[C@@H](C)NC(=O)c1nc(C(C)(C)C)no1"
Reply: 29.5 nM

Query: Dear colleague, I am looking for the recorded DC50 of the following molecule: "Cc1cc(-c2ccnc(Nc3ccc(N4CCN(CC5CCN(c6ccc(N7CCC(=O)NC7=O)cc6)CC5)CC4)c(F)n3)n2)ccc1[C@@H](C)NC(=O)c1nc(C(C)(C)C)no1"
Reply: 2.93 nM

Query: Given the molecule "Cc1cc(-c2ccnc(Nc3ccc(N4CCN(C5CC6(CCN(c7ccc(N8CCC(=O)NC8=O)cc7)CC6)C5)CC4)cn3)n2)ccc1[C@@H](C)NC(=O)c1nc(C(C)(C)C)no1" , what is its reported DC50?
Reply: 17.4 nM

---

- SYSTEM_NAME: BTK (Homo sapiens)
- Construct: endogenous in cells; host or cells: TMD-8 cells
- PROTOCOL_NOTES: BTK degradation in TMD-8 cells (HTRF assay)
- Assay type: cell-based
- MEASUREMENT_CONTEXT: 6 h treatment, HTRF BTK degradation IC50 (DC50)
READOUT_NAME: log10(DC50) (log10 of the value in nM)
Give log10 of DC50, with DC50 taken in nM.

# count of solved cases: 3
MOLECULE	log10(DC50)
Cc1cc(-c2cc(Nc3ccc(N4CCC5(CC4)CN(C(=O)C4CCN(c6ccc(N7CCC(=O)NC7=O)cc6)C4)C5)cn3)ncn2)ccc1[C@@H](C)NC(=O)c1nc(C(C)(C)C)no1 (some centres unmarked) [Example 38]	-0.02
CCc1nc(Nc2cc(-c3ccc([C@@H](C)NC(=O)c4nc(C(C)(C)C)no4)c(C)c3)ncn2)ccc1N1CCN(CC2CCN(c3ccc(N4CCC(=O)NC4=O)cc3)CC2)CC1 [Example 60]	0.59
Cc1cc(-c2cc(Nc3ccc(N4CCN(CCc5ccc6c(c5)oc(=O)n6C5CCC(=O)NC5=O)CC4)cn3)ncn2)ccc1[C@@H](C)NC(=O)c1nc(C(C)(C)C)no1 (some centres unmarked) [Example 49]	-0.31

Query: Test system BTK (Homo sapiens); read-out log10(DC50); what value for Cc1cc(-c2cc(Nc3ccc(N4CCN(CC5CCN(c6ccc(N7CCC(=O)NC7=O)cc6)CC5)CC4)cc3)ncn2)ccc1[C@@H](C)NC(=O)c1nc(C(C)(C)C)no1 [Example 7] ?
Reply: 1.11

Query: Any idea what log10(DC50) came out for Cc1cc(-c2cc(Nc3ccc(N4CC5(CN(C(=O)C6CCN(c7ccc(N8CCC(=O)NC8=O)cc7)C6)C5)C4)cn3)ncn2)ccc1[C@@H](C)NC(=O)c1nc(C(C)(C)C)no1 (some centres unmarked) [Example 37] on BTK (Homo sapiens)?
Reply: -0.08

Query: GET /values?readout=log10(DC50)&system=BTK (Homo sapiens)&item= Cc1cc(-c2cc(Nc3ccc(N4CCN(CCc5ccc(C6CCC(=O)NC6=O)c(F)c5)CC4)cn3)ncn2)ccc1[C@@H](C)NC(=O)c1nc(C(C)(C)C)no1 (some centres unmarked) [Example 47]
Reply: -0.02

Query: Record Cc1cc(-c2cc(Nc3ccc(N4CCN(C(=O)C5CN(c6ccc(C7CCC(=O)NC7=O)cc6)C5)CC4)cn3)ncn2)ccc1[C@@H](C)NC(=O)c1nc(C(C)(C)C)no1 (some centres unmarked) [Example 26] : what is its log10(DC50) with BTK (Homo sapiens)?
Reply: -0.05

Query: Value wanted: log10(DC50) (BTK (Homo sapiens)) of entry Cc1cc(-c2cc(Nc3ccc(N4CCN(CC5CCN(c6ccc(CN7CCC(=O)NC7=O)cc6)CC5)CC4)cn3)ncn2)ccc1[C@@H](C)NC(=O)c1nc(C(C)(C)C)no1 [Example 59]
Reply: 1.01

Query: Lab request: please report log10(DC50) under test system BTK (Homo sapiens) for Cc1cc(-c2cc(Nc3ccc(N4CCN(CC5CCN(c6ccc(N7CCC(=O)NC7=O)cc6)CC5)CC4)nn3)ncn2)ccc1[C@@H](C)NC(=O)c1nc(C(C)(C)C)no1 [Example 15]
Reply: -0.20
